Values compiled from paper PMC8288134.

- System: PRMI-8226
- protocol: NCI antitumor screen (SRB)
- Type: cell-based
- assayContext: Homo sapiens, one dose 10 µM, read-out: Growth inhibition percentage (GI%)
I'd be grateful if you could share measured inhibition at 10 µM for these entries.
Note: unit % is implicit; provide only the numeric part.

Asked: inhibition at 10 µM lookup needed for CCN(CC)c1ccc(/C=N/NC(=O)c2ccc(S(C)(=O)=O)cc2)c(O)c1 [Compound 20] , thanks.
Given back: 79

Asked: So what does the record say about inhibition at 10 µM for O=c1[nH]cc(F)c(=O)[nH]1 [Compound 5-Fu, 5-fluorouracil, reference compound] ?
Given back: 58.6

Asked: GET /values?readout=inhibition at 10 µM&item= Cc1ccc(NC(=O)c2ccc(CN3CCN(C)CC3)cc2)cc1Nc1nccc(-c2cccnc2)n1 [Imatinib, imatinib, reference compound]
Given back: 12.6

Asked: For the molecule shown here, CS(=O)(=O)c1ccc(C(=O)N/N=C/c2ccccc2O)cc1 [Compound 16] , give the reported inhibition at 10 µM.
Given back: 51.3

Asked: Quick one: inhibition at 10 µM for CS(=O)(=O)c1ccc(C(=O)NN=Cc2cccc3ccccc23)cc1 [Compound 6] ?
Given back: 12.3

###

- Tested on: NCI/ADR-RES
- protocol: NCI antitumor screen (SRB)
- Format: cell-based
- assayContext: Homo sapiens, one dose 10 µM, read-out: Growth inhibition percentage (GI%)
The threshold is inclusive: inhibition at 10 µM of exactly 50% counts as MET; values below receive NOT MET.

Asked: Quick check, inhibition at 10 µM >= 50%? Cc1ccc(NC(=O)c2ccc(CN3CCN(C)CC3)cc2)cc1Nc1nccc(-c2cccnc2)n1 [Imatinib, imatinib, reference compound]
Given back: NOT MET

Asked: Please tell me: is the compound CS(=O)(=O)c1ccc(C(=O)NN=Cc2cccc3ccccc23)cc1 at or over 50% in terms of inhibition at 10 µM?
Given back: NOT MET

Asked: Can CCN(CC)c1ccc(/C=N/NC(=O)c2ccc(S(C)(=O)=O)cc2)c(O)c1 be said to have inhibition at 10 µM at or above 50%?
Given back: MET

Asked: Quick check, inhibition at 10 µM >= 50%? Cc1ccc(C=NNC(=O)c2ccc(S(C)(=O)=O)cc2)cc1
Given back: NOT MET

Asked: # bool: inhibition at 10 µM of O=c1[nH]cc(F)c(=O)[nH]1 [Compound 5-Fu, 5-fluorouracil, reference compound] >= 50%
Given back: MET

Asked: Confirm if inhibition at 10 µM reported for the compound CS(=O)(=O)c1ccc(C(=O)N/N=C/c2ccccc2O)cc1 is 50% or above.
Given back: MET

###

- System: NCI-H522
- protocol: NCI antitumor screen (SRB)
- Assay type: cell-based
- assayContext: Homo sapiens, NCI-H522, read-out: Growth inhibition percentage (GI%)
Hi there, I'd appreciate the recorded inhibition at 10 µM for every entry that follows.
Please state the figure in %; there is no need to write the unit.

Asked: Test system NCI-H522; read-out inhibition at 10 µM; what value for CS(=O)(=O)c1ccc(C(=O)NN=Cc2ccc(Cl)cc2)cc1 [Compound 7] ?
Given back: 15.7

Asked: # query: inhibition at 10 µM | item COc1ccc(C=NNC(=O)c2ccc(S(C)(=O)=O)cc2)cc1 [Compound 10] | system: NCI-H522
Given back: 20.8

Asked: Query inhibition at 10 µM on NCI-H522 for Cc1ccc(C=NNC(=O)c2ccc(S(C)(=O)=O)cc2)cc1 [Compound 9]
Given back: 53.9

Asked: Query the reported inhibition at 10 µM for NCI-H522; item: COc1cc(/C=N/NC(=O)c2ccc(S(C)(=O)=O)cc2)ccc1O [Compound 19]
Given back: 37.7

Asked: Hello, I am looking for reported inhibition at 10 µM with NCI-H522 for CS(=O)(=O)c1ccc(C(=O)NN=Cc2ccc3c(c2)OCO3)cc1 [Compound 22] . Could you help?
Given back: 14

Asked: Find the measured inhibition at 10 µM: item CS(=O)(=O)c1ccc(C(=O)N/N=C/c2ccccc2O)cc1 [Compound 16] , target or system NCI-H522.
Given back: 84.9

###

- Test system: HL60 cells
- protocol: Annexin V-FITC/PI apoptosis assay
- Type: cell-based, human
- assayContext: HL60, 10 µM, 24 h
For each record, write down the corresponding Apoptosis, early.
The response must be a number in % with no trailing unit.

Asked: What Apoptosis, early appears in the records for this molecule with HL60 cells? Cc1ccc(C=NNC(=O)c2ccc(S(C)(=O)=O)cc2)cc1 [Compound 9]
Given back: 5.66

Asked: Hello, I am looking for reported Apoptosis, early with HL60 cells for CCN(CC)c1ccc(/C=N/NC(=O)c2ccc(S(C)(=O)=O)cc2)c(O)c1 [Compound 20] . Could you help?
Given back: 8.42

Asked: Form field: Apoptosis, early recorded for CS(=O)(=O)c1ccc(C(=O)NN=Cc2cccc3ccccc23)cc1 [Compound 6] with HL60 cells (enter value)
Given back: 3.52

Asked: Provide the documented Apoptosis, early with HL60 cells as the system for CS(=O)(=O)c1ccc(C(=O)N/N=C/c2ccccc2O)cc1 [Compound 16]
Given back: 7.34

###

- System: HOP-62
- protocol: NCI antitumor screen (SRB)
- Type: cell-based
- assayContext: Homo sapiens; HOP-62; one dose 10 µM; read-out: Growth inhibition percentage (GI%)
measureName: inhibition at 10 µM (%)
The response must be a number in % with no trailing unit.

Asked: // inhibition at 10 µM lookup, key: CCN(CC)c1ccc(/C=N/NC(=O)c2ccc(S(C)(=O)=O)cc2)c(O)c1
Given back: 87.1

Asked: Would you mind telling me what inhibition at 10 µM value was observed for CS(=O)(=O)c1ccc(C(=O)NN=Cc2ccc(Cl)cc2Cl)cc1 ?
Given back: 10.2

Asked: Give its inhibition at 10 µM value. Item: O=c1[nH]cc(F)c(=O)[nH]1 [Compound 5-Fu, 5-fluorouracil, reference compound]
Given back: 52.2

###

- Test system: SF-295
- protocol: NCI antitumor screen (SRB)
- Type: cell-based
- assayContext: Homo sapiens, one dose 10 µM, read-out: Growth inhibition percentage (GI%)
For each entry below, report its inhibition at 10 µM value.
Report the value in % with no unit label.

Asked: Requested read-out inhibition at 10 µM, target or system SF-295, entry CS(=O)(=O)c1ccc(C(=O)N/N=C/c2ccccc2O)cc1
Given back: 62

Asked: Query the reported inhibition at 10 µM for SF-295; item: CCN(CC)c1ccc(/C=N/NC(=O)c2ccc(S(C)(=O)=O)cc2)c(O)c1
Given back: 78.6

Asked: What value of inhibition at 10 µM on SF-295 does O=c1[nH]cc(F)c(=O)[nH]1 [Compound 5-Fu, 5-fluorouracil, reference compound] have?
Given back: 30.9

Asked: # returns recorded inhibition at 10 µM (system: SF-295) for Cc1ccc(NC(=O)c2ccc(CN3CCN(C)CC3)cc2)cc1Nc1nccc(-c2cccnc2)n1 [Imatinib, imatinib, reference compound]
Given back: 15.1

Asked: What inhibition at 10 µM appears in the records for this compound with SF-295? CS(=O)(=O)c1ccc(C(=O)NN=Cc2cccc3ccccc23)cc1
Given back: 24

###

- System: HT29
- protocol: NCI antitumor screen (SRB)
- Type: cell-based
- assayContext: Homo sapiens, HT-29, one dose 10 µM, read-out: Growth inhibition percentage (GI%)
Assignment: determine reported inhibition at 10 µM for the given compounds.
In your response, the unit should come after the numeric value.

Asked: Given CN(C)c1ccc(C=NNC(=O)c2ccc(S(C)(=O)=O)cc2)cc1 [Compound 12] , state its recorded inhibition at 10 µM.
Given back: 20.5%

Asked: Can you share its inhibition at 10 µM? I mean this compound: COc1cc(OC)c(OC)cc1/C=N/NC(=O)c1ccc(S(C)(=O)=O)cc1 [Compound 24]
Given back: 17.9%

Asked: Find the recorded inhibition at 10 µM belonging to CS(=O)(=O)c1ccc(C(=O)N/N=C/c2ccccc2O)cc1 [Compound 16] and report it.
Given back: 56.4%

Asked: Which inhibition at 10 µM is listed for Cc1ccc(C=NNC(=O)c2ccc(S(C)(=O)=O)cc2)cc1 [Compound 9] ?
Given back: 17.7%

Asked: # lookup: inhibition at 10 µM of COc1ccc(C=NNC(=O)c2ccc(S(C)(=O)=O)cc2)cc1 [Compound 10]
Given back: 10.8%

Asked: Reported inhibition at 10 µM for O=c1[nH]cc(F)c(=O)[nH]1 [Compound 5-Fu, 5-fluorouracil, reference compound] : what is it?
Given back: 72.9%

Asked: // query inhibition at 10 µM value for entry CS(=O)(=O)c1ccc(C(=O)NN=Cc2ccc(Cl)cc2Cl)cc1 [Compound 17]
Given back: 11.3%

Asked: Entry under review: Cc1ccc(NC(=O)c2ccc(CN3CCN(C)CC3)cc2)cc1Nc1nccc(-c2cccnc2)n1 [Imatinib, imatinib, reference compound] . Reported inhibition at 10 µM?
Given back: 47.1%

Asked: Could you tell me which inhibition at 10 µM is on file for CS(=O)(=O)c1ccc(C(=O)NN=Cc2cccnc2)cc1 [Compound 5] ?
Given back: 13.3%
